- ASSAY_SYSTEM: CpdS (SMA3506), CpdS-His8 (Serratia ureilytica, UniProt A0A9X9G1H8)
- Sequence (A0A9X9G1H8 entry or part of it): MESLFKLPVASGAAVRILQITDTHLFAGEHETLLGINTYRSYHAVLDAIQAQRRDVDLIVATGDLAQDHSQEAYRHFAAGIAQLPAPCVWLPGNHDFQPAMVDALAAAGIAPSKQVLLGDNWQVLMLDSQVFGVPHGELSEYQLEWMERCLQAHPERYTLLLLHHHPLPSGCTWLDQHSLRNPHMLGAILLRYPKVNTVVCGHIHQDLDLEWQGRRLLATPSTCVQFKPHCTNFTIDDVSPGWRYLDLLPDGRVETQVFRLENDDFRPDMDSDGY

SMILES_TEXT: CC(C)Cn1c(=O)n(C)c(=O)c2[nH]cnc21
ASSAY_SYSTEM: CpdS (SMA3506), CpdS-His8 (Serratia ureilytica, UniProt A0A9X9G1H8)
IC50: 4.8 mM
